Catalogue of IC50 readings, one per entry.
Target under test: c-src (Homo sapiens, UniProt P12931)
Sequence (P12931 whole entry, species assumed): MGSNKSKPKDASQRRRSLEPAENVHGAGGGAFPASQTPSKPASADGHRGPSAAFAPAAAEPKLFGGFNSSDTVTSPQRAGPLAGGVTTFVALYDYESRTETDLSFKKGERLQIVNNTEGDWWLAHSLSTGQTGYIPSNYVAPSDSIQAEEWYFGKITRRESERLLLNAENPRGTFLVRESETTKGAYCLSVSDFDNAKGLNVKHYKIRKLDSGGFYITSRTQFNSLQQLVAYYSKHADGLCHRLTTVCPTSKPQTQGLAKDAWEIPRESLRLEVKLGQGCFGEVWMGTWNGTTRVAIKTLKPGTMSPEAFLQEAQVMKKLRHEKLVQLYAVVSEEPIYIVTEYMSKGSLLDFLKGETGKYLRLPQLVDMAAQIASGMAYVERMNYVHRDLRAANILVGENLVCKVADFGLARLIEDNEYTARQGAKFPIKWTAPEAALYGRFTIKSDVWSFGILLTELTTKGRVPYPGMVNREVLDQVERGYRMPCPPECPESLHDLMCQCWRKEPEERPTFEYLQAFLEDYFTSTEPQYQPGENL
Test protocol: c-src kinase inhibition
Format: biochemical
Test settings: read-out: c-src, range of activity, pIC50 values (converted)

Oc1cc(Nc2ccnc3cc(-c4cccc(CNCCN5CCOCC5)c4)ccc23)c(F)cc1Cl	< 10 nM
OCc1nc(-c2ccc3c(Nc4cc(O)c(F)cc4Cl)ccnc3c2)cs1	< 10 nM
Oc1cc(Nc2ccnc3cc(-c4cc5ccccc5o4)ccc23)ccc1Br	10 to 100 nM

Could you now look at the following compound, please?
State its IC50: `Oc1cccc(Nc2ccnc3cc(-c4ccccn4)ccc23)c1` < 10 nM
